- Test system: A498
- test: cells
- Format: cell-based
- test_conditions: Homo sapiens, Kidney, DMEM + 10% FCS, 72 hours
pIC50: −log10 of the molar value.
parameter_measured: pIC50

                         structure_notation  result_value
0  CC(C)C[C@H](NC(=O)[C@H](Cc1ccccc1)NC(=O)c1cnccn1)B(O)O          8.04

----------
- Tested on: MCF-7
- test: cells
- Format: cell-based
- test_conditions: Homo sapiens, MCF7; Breast; DMEM + 10% FCS; 72 hours
parameter_measured: IC50 (nM)

>>> print(df.to_string())
                                   molecule  result_value
0  CC(C)C[C@H](NC(=O)[C@H](Cc1ccccc1)NC(=O)c1cnccn1)B(O)O [Bortezomib]            21
